Value source: patent US7026334B1

Target: human TPO receptor (hTPOR) (Homo sapiens)
Sequence (P40238 26-635): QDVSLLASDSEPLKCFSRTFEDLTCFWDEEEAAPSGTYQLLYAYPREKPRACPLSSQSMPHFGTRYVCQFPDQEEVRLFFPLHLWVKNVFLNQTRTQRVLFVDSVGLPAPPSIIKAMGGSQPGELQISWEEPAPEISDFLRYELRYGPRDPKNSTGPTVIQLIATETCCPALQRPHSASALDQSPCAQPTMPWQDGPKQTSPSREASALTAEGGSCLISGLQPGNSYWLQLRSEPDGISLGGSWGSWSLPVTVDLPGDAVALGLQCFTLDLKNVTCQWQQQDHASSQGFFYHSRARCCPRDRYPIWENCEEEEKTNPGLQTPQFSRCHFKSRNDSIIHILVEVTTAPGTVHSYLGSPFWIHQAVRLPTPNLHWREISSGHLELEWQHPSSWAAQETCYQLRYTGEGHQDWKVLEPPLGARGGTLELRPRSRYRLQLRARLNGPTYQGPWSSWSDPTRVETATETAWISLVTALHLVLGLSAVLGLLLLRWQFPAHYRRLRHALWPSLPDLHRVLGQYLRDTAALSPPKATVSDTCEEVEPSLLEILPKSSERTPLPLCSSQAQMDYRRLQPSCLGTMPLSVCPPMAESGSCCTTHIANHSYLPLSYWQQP
Experiment: Proliferation of TPO dependent BaF/hTPOR cells (thrombopoietic activity, WST-1)
Conditions: 20 hours + 4 hours WST-1, absorbance at 450 nm, ED50 = half concentration of the concentration showing the maximum thrombopoietic activity
Excerpt: The TPO dependent BaF/hTPOR cell line which was established by introducing human TPO receptor (hTPOR) into BaF-BO3 cells according to Collins et al (J. Cell. Physiol., 137:293-298 (1988)) was used to test the thrombopoietic activity of the present compound (B-17). The DNA sequences and encoded peptide sequences for human hTPOR have been described by Vigon et al (Proc. Natl. Acad. Sci. USA, 89:5640-5644 (1992)). […]
Readout: EC50

{"columns": ["Chemical structure", "EC50"],
 "data": [
  ["CC(C)OC(=O)c1ccc(-c2csc(NC(=O)c3ccc(/C=C4\\SC(=S)NC4=O)cc3)n2)cc1", "99 nM"],
  ["O=C1NC(=S)S/C1=C\\c1ccc(C(=O)Nc2nc(-c3ccc(Br)s3)cs2)cc1", "41 nM"],
  ["O=C1NC(=O)C(=Cc2ccc(C(=O)Nc3nc(-c4ccc(F)cc4)cs3)cc2)S1", "11 nM"]
]}

// switching to the query compound
Asked: Entry O=C1NC(=S)SC1=Cc1ccc(C(=O)Nc2nc(-c3ccccc3)cs2)cc1 : reported EC50 = ?
Given back: 58 nM
